System: MOLT-4
Experiment: NCI tumour cell line growth inhibition, 48 h
Active and inactive are the calls of the source. No stated cut-off is given here; in the data, active = GI50 up to about 1.1 µM and inactive = higher.
The categories you may choose from are active, inactive

So what was the verdict on `COC(=O)/C(C#N)=C/c1cc(C(C)(C)C)c(O)c(C(C)(C)C)c1` in this test?
inactive

So what was the verdict on `CCOC(=O)c1[nH]cc(C)c1-c1ccn(-c2ccccc2)c1` in this test?
inactive

So what was the verdict on `CCOC(=O)c1cn(C)c(=S)n2c1nc1ccccc12` in this test?
inactive

So what was the verdict on `c1ccc(C[P+]2(c3ccccc3)c3ccccc3-c3ccccc32)cc1` in this test?
inactive

So what was the verdict on COc1ccc2c(c1)OCC1Cc3cc4c(cc3OC21)OCO4 (configuration not stated) in this test?
inactive

So what was the verdict on O=C1/C(=C\c2cccc(Oc3ccccc3)c2)SC(c2ccccc2)N1c1ccc(Cl)cc1 (configuration not stated) in this test?
inactive

So what was the verdict on `C[N+]1=C(c2cccnc2/C=N/O)OCC1(C)C` in this test?
inactive

So what was the verdict on `c1ccc(/C(=N/Nc2ccccn2)c2ncccn2)cc1` in this test?
active

So what was the verdict on `O=C1C=C(NCCc2ccc(O)cc2)C(=O)C=C1NCCc1ccc(O)cc1` in this test?
inactive

So what was the verdict on `Nc1ccc(Oc2ccc(C34CC5CC(C3)CC(c3ccc(Oc6ccc(N)c(O)c6)cc3)(C5)C4)cc2)cc1O` in this test?
inactive

So what was the verdict on `O=C1CC(c2ccc(Cl)cc2)=Nc2ccccc2N1` in this test?
inactive

So what was the verdict on `COc1ccc(-c2nc3ccc(C)cc3o2)c(OC)c1` in this test?
inactive

So what was the verdict on COc1ccc(C2c3cc(OC)c(OC)cc3C(Cc3ccc([N+](=O)[O-])cc3)C2c2ccc([N+](=O)[O-])cc2)cc1OC (configuration not stated) in this test?
inactive

So what was the verdict on `CN(C)/C=C1\CCc2ccc([N+](=O)[O-])cc2C1=O` in this test?
inactive

So what was the verdict on C[C@@H]1C[C@@H](O)[C@@]2(O)C13CC(=O)OC(C3)[C@@H](C)[C@@]2(C)CO (some centres not stated) in this test?
inactive

So what was the verdict on O=C(CC(=O)C1CCOC1=O)C(=O)Nc1cccc(Cl)c1 (configuration not stated) in this test?
inactive

So what was the verdict on `O=[N+]([O-])c1ccc(CSc2c3ccccc3nc3ccccc23)cc1` in this test?
inactive

So what was the verdict on CCOC(=O)C12OC(OCC)(CC1(OCC)OCC)C1(CC1)C2=O (configuration not stated) in this test?
inactive

So what was the verdict on O=C(CCC(=O)C1Cc2ccccc2C1=O)Nc1cccc(C(F)(F)F)c1 (configuration not stated) in this test?
inactive

So what was the verdict on Cc1ccc(NC(=O)CC2SC(=N)NC2=O)cc1C (configuration not stated) in this test?
inactive

So what was the verdict on `Oc1ccc(Cl)cc1/C=N/c1cnc2ccccc2c1` in this test?
inactive

So what was the verdict on Cc1cc(S(=O)(=O)Nc2nc(N)nc(N3N=CCC3C)n2)c(SCC(=O)O)cc1Cl (configuration not stated) in this test?
inactive

###

Tested on: SNB-19
Experiment: NCI tumour cell line growth inhibition, 48 h
Activity calls are given as the source filed them. Rule as the data show it: active = GI50 up to about 1.1 µM and inactive = higher.
The categories you may choose from are active, inactive

So what was the verdict on `NC(=O)C(=Cn1c(=S)[nH]c2ccc([N+](=O)[O-])cc21)C(N)=O` in this test?
inactive

So what was the verdict on Cc1cc(O)nc(NN2C(Cl)C(=O)C2c2ccccc2O)n1 (centres undefined) in this test?
inactive

So what was the verdict on `CCOC(=O)c1cc(-c2cc(OC)c(OC)c([N+](=O)[O-])c2)c([N+](=O)[O-])n1C` in this test?
inactive

So what was the verdict on `O=S(=O)(O)SC/C=C\CSS(=O)(=O)O` in this test?
inactive

So what was the verdict on CC1Oc2cc3c(-c4c(O)cc(O)c5c(O)c6c(cc45)OC(C)C(C)C6=O)c(O)cc(O)c3c(O)c2C(=O)C1C (centres undefined) in this test?
active

So what was the verdict on `O=S(=O)(/C=C/c1ccc(F)cc1)Cc1ccc(CS(=O)(=O)/C=C/c2ccc(F)cc2)cc1` in this test?
inactive

So what was the verdict on `CCOC(=O)c1oc2ccc([N+](=O)[O-])c3c2c1CCC3` in this test?
inactive

So what was the verdict on `C=CCN(CCN(CC=C)S(=O)(=O)c1ccc(C)cc1)S(=O)(=O)c1ccc(C)cc1` in this test?
inactive

So what was the verdict on CCOC(=O)C1N(S(=O)(=O)c2ccc(C)cc2)CCC12c1ccccc1N(C(C)=O)C2C(/C=C/C(=O)OC)=C/C(=O)OC (centres undefined) in this test?
inactive

###

System: DU-145
Test: NCI tumour cell line growth inhibition, 48 h
Structures can show the parent of a compound that is named as a salt. Calls of active or inactive are those of the source. Rule as the data show it: active = GI50 up to about 1.1 µM and inactive = higher. Where a SMILES comes first, the peptide text is derived from it. [ ]: non-standard residue; d: D form. The star is where a group is joined. Phe(4-NO2) = N[CH](Cc1ccc([N+](=O)[O-])cc1)C(=O)O; Boc = CC(C)(C)OC(=O)*; OBn = c1ccc(CO*)cc1
The categories you may choose from are true for active, false for inactive

So what was the verdict on Clc1ccc2c(NC3CCC(N4CCCCC4)CC3)ccnc2c1 (centres undefined) in this test?
false

So what was the verdict on `O=C(Nc1sccc1S(=O)(=O)c1ccc(Cl)cc1)c1ccc(Cl)cc1Cl` in this test?
false

So what was the verdict on `NS(=O)(=O)c1ccc(/N=N/c2nc3nc(O)nc(O)c3[nH]2)cc1` in this test?
false

So what was the verdict on `CN(C)S(=O)(=O)c1ccc(Nc2ccc(O)c3c2C(=O)c2c([N+](=O)[O-])ccc(O)c2C3=O)cc1` in this test?
false

So what was the verdict on `CCOC(=O)NC(Nc1ccc(C(=O)OCC)cc1)(C(F)(F)F)C(F)(F)F` in this test?
false

So what was the verdict on `Oc1ccc(Cl)cc1Cc1cc(Cl)cc(Cc2cc(Cl)ccc2O)c1O` in this test?
false

So what was the verdict on `CCOC(=O)/C(=C\NC(=S)Nc1ccc(Cl)c(Cl)c1)C(=O)c1ccccc1` in this test?
false

So what was the verdict on `COc1ccc(Nc2nc3ccccc3nc2-c2cccs2)cc1OC` in this test?
false

So what was the verdict on `C[C@@H](NC(=O)Nc1cccc(C(=O)Nc2cc(C(C)(C)C)ccc2C(=O)O)n1)c1ccccc1` in this test?
false

So what was the verdict on `Cc1sc2nc(-c3ccc([N+](=O)[O-])cc3)c(/C=N/N=C(N)N)n2c1C` in this test?
false

So what was the verdict on `NS(=O)(=O)c1c(O)c2ccccc2oc1=O` in this test?
false

So what was the verdict on `CCOC(=O)c1c(-c2ccccc2)[nH]c2ccc(Cl)cc2c1=O` in this test?
false

So what was the verdict on Cc1cc(Cl)cc2c1NC(=O)C2(O)CC(=O)c1ccco1 (centres undefined) in this test?
false

So what was the verdict on C[C@]12CCC(O)CC1=CC[C@@H]1[C@@H]2CC[C@]2(C)C(=O)[C@H](n3ccnc3)C[C@@H]12 (some centres undefined) in this test?
false

So what was the verdict on C=CCC(NCc1ccccc1)[C@H](OCc1ccccc1)[C@@H]1COC(C)(C)O1 (some centres undefined) in this test?
false

So what was the verdict on `CC1=NN(c2nc(N)nc(/C(C#N)=C/c3ccncc3)n2)C(C)(C)C1` in this test?
false

So what was the verdict on `COc1ccccc1Nc1nc(N)nc(N)c1N` in this test?
false

So what was the verdict on `C=C1C(=O)O[C@H]2[C@H]3O[C@@H](C[C@@H]12)[C@@]1(C)CC[C@H](O1)C(C)=CCC[C@H]3C` in this test?
false

So what was the verdict on CCOC(=O)CCC(NC(=O)c1ccc(/N=C/c2nc3cc(C(F)(F)F)ccc3nc2-c2ccccc2)cc1)C(=O)OCC (centres undefined) in this test?
false

So what was the verdict on `N=C(N)NS(=O)(=O)c1ccc(Nc2c3ccccc3nc3c(C(=O)NNCCO)cccc23)cc1` in this test?
true

So what was the verdict on `COC(=O)c1cn(CCCC(=O)O)nn1` in this test?
false

So what was the verdict on `C=C(Br)CNCC(=C)Br` in this test?
false

So what was the verdict on COc1ccc2c(c1)OCC1Cc3cc4c(cc3OC21)OCO4 (centres undefined) in this test?
false

So what was the verdict on COC(=O)CCC(NC(=O)OC(C)(C)C)C(=O)NC(Cc1ccc([N+](=O)[O-])cc1)C(=O)NCC(=O)OCc1ccccc1 (centres undefined) (Boc-Glu(OMe)-[Phe(4-NO2)]-Gly-OBn; configuration not given here) in this test?
false

So what was the verdict on `Cc1ncn(-c2ccccc2O)c1C` in this test?
false

So what was the verdict on `C[N+](C)(CCCCCC[N+](C)(C)CCCN1C(=O)c2cccc3cccc(c23)C1=O)CCCN1C(=O)c2cccc3cccc(c23)C1=O` in this test?
false

So what was the verdict on `Oc1ccc(Br)cc1/C=N/c1cccc(C(F)(F)F)c1` in this test?
false

So what was the verdict on `CN1CCN(c2nc3ccccc3nc2C(=O)c2ccc(Cl)cc2)CC1` in this test?
false

So what was the verdict on `CN1CC[C@]2(c3cccc(O)c3)CC(=O)/C(=C/c3ccccc3)[C@@H]1C2.[O-][Cl+3]([O-])([O-])O` in this test?
false

So what was the verdict on c1ccc([C@H]2CN3CCSC3=N2)cc1 [LEVAMISOLE HYDROCHLORIDE] in this test?
false

So what was the verdict on C=C1[C@@H](OC(C)=O)/C=C/C2C3C(=O)[C@@](C)(OC(C)=O)[C@H]([C@H](OC(C)=O)[C@]4(O)[C@@H](C)C(=O)O[C@H]4[C@H]1Cl)[C@@]23C (some centres undefined) in this test?
false

So what was the verdict on `O=[N+]([O-])c1ccc(/C=N\N=c2/ccc([N+](=O)[O-])c[nH]2)cc1` in this test?
false

So what was the verdict on `CN(C)C[C@H]1CC[C@@H](CN(C)C)C1=O` in this test?
false

So what was the verdict on `COc1cccc(/C=C\c2ccnc3ccccc23)c1` in this test?
false

So what was the verdict on CCC(=O)Nc1ccc(NC(C#N)c2cccc(Oc3ccccc3)c2)cc1 (centres undefined) in this test?
false

So what was the verdict on `COCc1nc2c(OC)c(-c3nc4ccc(N5CCN(C)CC5)nc4[nH]3)cc(OC)c2[nH]1` in this test?
false

So what was the verdict on `O=C(CCN1CCCCC1)Nc1ccc2sc3ccccc3c(=O)c2n1` in this test?
false

So what was the verdict on `CN1CCN(CCCCN2c3ccccc3Sc3ccc(N=[N+]=[N-])cc32)CC1` in this test?
false

So what was the verdict on `N#CCCN(CCCN(C(=O)N(c1ccccc1)c1ccccc1)c1ccccc1)C(=O)Nc1ccccc1` in this test?
false
